# Tested on: IICR (IP3 induced calcium release) in CHO cells
# protocolDetails: Assay of IICR (IP3 induced calcium release)-inhibiting action
# Format: cell-based, Chinese hamster
# settings: Cricetulus griseus, CHO, test compound 30 μmol; CHO cells, 10 μM ATP; read-out: IICR level (percentage of inhibition)
reportedEndpoint: inhibition at 30 µM (%)
Give bare numbers, in %.

Worked examples follow.
Exam item: Data request, read-out inhibition at 30 µM, for "CCCCN(CCO)CCC(=O)c1ccc2c(Cl)cccc2c1"
Marked response: 90

Exam item: Dear colleague, I am looking for the recorded inhibition at 30 µM of the following molecule: O=C(CCNC(CO)c1ccccc1)c1ccc(Br)s1 (centres unmarked)
Marked response: 20

Exam item: Look up inhibition at 30 µM: "O=C(CCN(CCO)Cc1ccccc1)c1cnccn1"
Marked response: 50

Exam item: Item "Cc1ccc(C(=O)CCNCCO)s1" has what recorded inhibition at 30 µM?
Marked response: 20

Exam item: Consider the molecule "CC(C)N(CCO)CCC(=O)c1nccs1" and give its measured inhibition at 30 µM.
Marked response: 30

Exam item: # inhibition at 30 µM lookup, item "O=C(CCN(CCO)Cc1ccccc1)c1ccco1"
Marked response: 20

Fill in inhibition at 30 µM for each of the 3 molecules listed.
1. Cn1cccc1C(=O)CCN(CCO)Cc1ccccc1
2. CC(C)N(CCO)CCC(=O)c1cccs1
3. CC(C)N(CCO)CCC(=O)c1ccncc1

Marked response:
1. 0
2. 0
3. 50

Report inhibition at 30 µM for each item below.
1. COC(=O)C(CSSCC(NCCC(=O)c1ccc(I)s1)C(=O)OC)NCCC(=O)c1ccc(I)s1 (centres unmarked)
2. CCN(CCC(=O)c1ccc(F)cc1)Cc1ccccc1

Marked response:
[43, 20]
